Cited source for all entries: PubChem BioAssay (NCI)

test: NCI Yeast Anticancer Drug Screen. Data for the mlh1 rad18 strain (AID 175); settings: S. cerevisiae mlh1 rad18 strain growth inhibition; at 50.0 µM; stronger effect = higher value
The panel holds about 79,000 compounds, 15% with a hit somewhere; the sample as a whole holds those more often.
Each record here notes measured growth inhibition.
Numeric only. Scale: %

compound	unit.label	growth inhibition
CCCCCCCCCCOC(=O)c1ccccc1O	%	-10.4
CC(=O)OCC(OC(C)=O)C(OC(C)=O)C(OC(C)=O)C(S)S (centres undefined)	%	28.9
O=C(NC(CSC(=O)OCc1ccccc1)C(=O)Oc1ccc([N+](=O)[O-])cc1)OCc1ccccc1 (centres undefined)	%	2.4
Cn1c(Nc2ccccc2)c([N+](=O)[O-])c(=O)n(C)c1=O	%	-27.6
CC(CO)N1CCCCCC1 (centres undefined)	%	-9
Nc1nc(Cc2ccccc2)nc2[nH]ncc12	%	-1.6
CCc1nnc2sc3c(Cl)c4nn5c(CC)nnc5sc4c(Cl)c3nn12	%	12.5
COc1ccc(-n2cc[n+](C)c2/C=N\O)cc1	%	-13.6
COC(=O)C1CC(=C(C)C)CCC1=O (centres undefined)	%	-1.7
O=S(=O)(Cl)c1cccc2cc3ccccc3cc12	%	-7.05

Q. What does the data say about its growth inhibition? Entry: C[C@]12CCC[C@H](O)[C@H]1O2
A. -10.2

Q. Param item = CC1=C/C(=N\O)C(C(O)(C(F)(F)F)C(F)(F)F)C(C)(C)C1 (centres undefined) ; retrieve measured growth inhibition.
A. 2.9
